Each item that follows carries a reported percent reduction in TR-FRET probe signal.
Tested on: AEK1 (Tb927.3.2440)
testSummary: percent reduction in TR-FRET probe signal relative to DMSO control; higher = stronger displacement of ATP-site probe (binding)
conditionsUsed: 1 µM; incubation time 1 h
experimentalEndpoint: percent reduction in TR-FRET probe signal (%)

INSERT INTO results (compound, unitname, reportedresult) VALUES
  ('COc1cc(F)c(F)c(Nc2ccc(I)cc2F)c1NS(=O)(=O)C1(C[C@H](O)CO)CC1 [Refametinib (RDEA119, Bay 86-9766)]', '%', -1.27),
  ('CNC(=O)c1cc(Oc2ccc3nc(N[C@@H]4CCCC[C@H]4O)sc3c2)ccn1', '%', -6.41),
  ('CO[C@H]1CC[C@H](N2C(=O)CNc3ncc(-c4ccc(C(C)(C)O)nc4)nc32)CC1', '%', -4.45),
  ('C#Cc1cccc(Nc2ncnc3cc4c(cc23)OCCOCCOCCO4)c1', '%', -5.67),
  ('CN1CCN(S(=O)(=O)c2ccc(-c3cnc(N)c(C(=O)Nc4cccnc4)n3)cc2)CC1', '%', -4.29),
  ('CN1CCN(c2ccc(Nc3cc(-c4cccc(-n5ccc6cc(C7CC7)cc(F)c6c5=O)c4CO)cn(C)c3=O)nc2)CC1', '%', 6.04),
  ('CCCCCCCCCCCCCCCc1cccc(O)c1C(=O)O', '%', 19.2),
  ('CCCNC(=O)c1cn2ncnc(Nc3cc(C(=O)NC4CC4)ccc3C)c2c1C', '%', 10.5);

====

Test system: AEK1 (Tb927.3.2440)
testSummary: percent reduction in TR-FRET probe signal relative to DMSO control; higher = stronger displacement of ATP-site probe (binding)
conditionsUsed: 1 µM; incubation time 1 h
Decide using percent reduction in TR-FRET probe signal: a value greater than or equal to 10% is 1 (yes), a smaller one is 0 (no).

INSERT INTO results (molecule, systemname, classassignment) VALUES
  ('Nc1nc(NCCNc2ncc(-n3ccnc3)c(-c3ccc(Cl)cc3Cl)n2)ccc1[N+](=O)[O-]', 'AEK1 (Tb927.3.2440)', '0 (no)'),
  ('COc1ccc(F)c(F)c1C(=O)c1cnc(NC2CCN(S(C)(=O)=O)CC2)nc1N', 'AEK1 (Tb927.3.2440)', '0 (no)'),
  ('CC(C)(C)c1cc(/C=C(\C#N)C(N)=S)cc(C(C)(C)C)c1O', 'AEK1 (Tb927.3.2440)', '0 (no)'),
  ('CNC(=O)c1ccccc1Nc1nc(Nc2ccc(N3CCOCC3)cc2OC)ncc1Cl', 'AEK1 (Tb927.3.2440)', '1 (yes)'),
  ('Cn1cnc(-c2cc3nccc(Oc4ccc(NC(=S)NC(=O)Cc5ccccc5)cc4F)c3s2)c1', 'AEK1 (Tb927.3.2440)', '1 (yes)'),
  ('COCCOc1ccc2c(c1)ncn2-c1ccc2cccc(N3CCC(N)CC3)c2n1', 'AEK1 (Tb927.3.2440)', '1 (yes)'),
  ('C=CC(=O)Nc1ccc2ncnc(Nc3ccc(OCc4cccc(F)c4)c(Cl)c3)c2c1.Cc1ccc(S(=O)(=O)O)cc1', 'AEK1 (Tb927.3.2440)', '0 (no)'),
  ('COc1ccc(Cl)cc1NC(=O)Nc1cc(C)nc2ccccc12', 'AEK1 (Tb927.3.2440)', '0 (no)'),
  ('CS(=O)(=O)O.Cc1ccc(NC(=O)c2ccc(CN3CCN(C)CC3)cc2)cc1Nc1nccc(-c2cccnc2)n1 [Imatinib Mesylate (STI571)]', 'AEK1 (Tb927.3.2440)', '0 (no)'),
  ('N#CC[C@@H](C1CCCC1)n1cc(-c2ncnc3[nH]ccc23)cn1', 'AEK1 (Tb927.3.2440)', '1 (yes)'),
  ('Nc1nccc(Oc2ccc(NC(=O)c3c[nH]cc(-c4ccc(F)cc4)c3=O)cc2F)c1Cl', 'AEK1 (Tb927.3.2440)', '1 (yes)'),
  ('CNC(=O)c1c(F)cccc1Nc1nc(Nc2cc3c(cc2OC)CCN3C(=O)CN(C)C)nc2[nH]ccc12', 'AEK1 (Tb927.3.2440)', '0 (no)'),
  ('CO[C@@H](C(=O)N1Cc2[nH]nc(NC(=O)c3ccc(N4CCN(C)CC4)cc3)c2C1)c1ccccc1', 'AEK1 (Tb927.3.2440)', '1 (yes)'),
  ('Oc1c(F)cc(-c2cnccc2-c2ccc(N3CCOCC3)cc2)cc1F', 'AEK1 (Tb927.3.2440)', '0 (no)'),
  ('NC(=O)c1ccc(N(C(N)=O)c2c(F)cccc2F)nc1-c1ccc(F)cc1F', 'AEK1 (Tb927.3.2440)', '0 (no)'),
  ('CCNC(=O)Nc1ccc(-c2nc3c(c(N4CCOC[C@@H]4C)n2)CCN(C2COC2)C3)cc1', 'AEK1 (Tb927.3.2440)', '1 (yes)'),
  ('COc1ccc2cc(-c3[nH]c(-c4ccc(S(C)=O)cc4)nc3-c3ccncc3)ccc2c1 (configuration not stated)', 'AEK1 (Tb927.3.2440)', '0 (no)');

====

System: AEK1 (Tb927.3.2440)
testSummary: percent reduction in TR-FRET probe signal relative to DMSO control; higher = stronger displacement of ATP-site probe (binding)
conditionsUsed: 1 µM; incubation time 1 h
experimentalEndpoint: percent reduction in TR-FRET probe signal (%)

INSERT INTO measurements (compound, reportedresult) VALUES
  ('Cc1[nH]c(/C=C2\C(=O)Nc3ccc(S(=O)(=O)N(C)c4cccc(Cl)c4)cc32)c(C)c1C(=O)N1CCN(C)CC1', 34.1),
  ('O=C(NCc1cccc(O)c1)Nc1nc(-c2ccncc2)cs1', -10),
  ('Cc1cc(Nc2nc(N[C@@H](C)c3ncc(F)cn3)ncc2Cl)n[nH]1', 56.5),
  ('COc1ncc(-c2ccc3nccc(-c4ccnnc4)c3c2)cc1NS(=O)(=O)c1ccc(F)cc1F', 3.02),
  ('CCc1cccc(CC)c1NC(=O)N1Cc2[nH]nc(NC(=O)c3ccc(N4CCN(C)CC4)cc3)c2C1', 29.3),
  ('CS(=O)c1ccc(-c2nc(-c3ccc(F)cc3)c(-c3ccncc3)[nH]2)cc1 (configuration not stated)', -6.83),
  ('Cn1c(=O)c(F)c(Nc2ccc(I)cc2F)c2c(=O)n(C[C@@H](O)CO)cnc21', 10.1),
  ('COc1cc(Nc2ncc(F)c(Nc3ccc4c(n3)NC(=O)C(C)(C)O4)n2)cc(OC)c1OC.O=S(=O)(O)c1ccccc1', 85.4),
  ('CN1CCN(c2ccc(C(=O)Nc3n[nH]c4ccc(Cc5cc(F)cc(F)c5)cc34)c(NC3CCOCC3)c2)CC1 [Entrectinib (RXDX-101)]', -3.42),
  ('N#CC[C@H](C1CCCC1)n1cc(-c2ncnc3[nH]ccc23)cn1', 22.6),
  ('C[C@]1(O)C[C@@H](c2nc(-c3ccc4ccc(-c5ccccc5)nc4c3)c3c(N)nccn32)C1', -6.09),
  ('CC(C)(C)n1nc(-c2ccc(Cl)cc2)c2c(N)ncnc21', -1.96),
  ('Cl.Cl.NC1(c2ccc(-c3nc4ccn5c(=O)[nH]nc5c4cc3-c3ccccc3)cc2)CCC1', -1.31),
  ('CNc1nc(-c2ccc3c(N)n[nH]c3c2)cc(N2C[C@@H](C(=O)NC3CCCCC3)CC[C@H]2C)n1', 14.7),
  ('CNC(=O)Nc1ccc(-c2nc(N3CC4CCC(C3)O4)c3cnn(C4CCC5(CC4)OCCO5)c3n2)cc1', -1.55),
  ('O=C(NOCC1CC1)c1ccc(F)c(F)c1Nc1ccc(I)cc1Cl', 5.58),
  ('Cc1cnc(Nc2ccc(N3CCN(C)CC3)cc2)nc1Nc1cccc(S(=O)(=O)NC(C)(C)C)c1', 5.49);

====

Each item that follows carries a reported percent reduction in TR-FRET probe signal.
System: AEK1 (Tb927.3.2440)
testSummary: percent reduction in TR-FRET probe signal relative to DMSO control; higher = stronger displacement of ATP-site probe (binding)
conditionsUsed: 1 µM; incubation time 1 h
experimentalEndpoint: percent reduction in TR-FRET probe signal (%)

INSERT INTO results (compound, unitname, reportedresult) VALUES
  ('C=CC(=O)Nc1cccc(Sc2nc(Nc3ccc(N4CCN(C)CC4)cc3)ncc2Cl)c1', '%', 3.76),
  ('NC(=O)Nc1cc(-c2cccc(F)c2)sc1C(=O)N[C@H]1CCCNC1', '%', 48.5),
  ('O=C(Nc1c[nH]nc1-c1nc2cc(CN3CCOCC3)ccc2[nH]1)NC1CC1', '%', 52),
  ('COc1cc2nccc(Oc3ccc(NC(=O)NC4CC4)c(Cl)c3)c2cc1C(N)=O [Lenvatinib (E7080)]', '%', 1.41),
  ('Cc1cc(NC(=O)c2cccc(NC(=O)/C=C/CN(C)C)c2)ccc1Nc1nccc(-c2cccnc2)n1', '%', -7.17),
  ('CC(C)(C#N)c1ccc(N2C(=O)OCc3cnc4ccc(-c5cnc6ccccc6c5)cc4c32)cc1', '%', -6.23),
  ('CN([C@@H](Cc1ccc(OS(=O)(=O)c2cccc3cnccc23)cc1)C(=O)N1CCN(c2ccccc2)CC1)S(=O)(=O)c1cccc2cnccc12', '%', 0.31),
  ('COc1cccc(-c2cc(=O)c3ccccc3o2)c1N', '%', -1.76),
  ('CC(C)(C)c1cnc(CSc2cnc(NC(=O)C3CCNCC3)s2)o1', '%', -4.82),
  ('C[C@@H]1COC(Nc2ccc3ncnc(Nc4ccc(OCc5nccs5)c(Cl)c4)c3c2)=N1', '%', 11.3),
  ('CNC(=O)c1cc(Oc2ccc(NC(=O)Nc3ccc(Cl)c(C(F)(F)F)c3)c(F)c2)ccn1', '%', 11.5),
  ('COc1cc2ncnc(Nc3ccc(F)c(Cl)c3)c2cc1NC(=O)/C=C/CN1CCCCC1', '%', -9.62),
  ('CCN1/C(=C/C(C)=O)Sc2ccc(OC)cc21', '%', 2.44),
  ('CC(C)CC(=O)Nc1n[nH]c2c1CN(C(=O)C1CCN(C)CC1)C2(C)C', '%', -0.07),
  ('NC(=O)c1ccc(-c2nc(-c3ccc4c(c3)OCCO4)c(-c3ccccn3)[nH]2)cc1', '%', -1.5),
  ('O=C(Cc1ccc(-c2ccc(OCCN3CCOCC3)cc2)cn1)NCc1ccccc1', '%', -1.26),
  ('CC(C)n1nc(-c2ccc3oc(N)nc3c2)c2c(N)ncnc21', '%', -2.53);
